test system: Common Cutworm (Spodoptera Litura); experiment: Insecticidal effect on common cutworm (Test Example 2); type: in vivo; conditions: 50 ppm; cabbage leaf immersed about 30 seconds; second-instar larvae; 25° C.; eight days after the inoculation
quantity_name: Test Example 2 insecticidal effect (mortality)

Solved entries (count: 5):
{"compound": "CSCC(C)NC(=O)c1c(C(=O)Nc2ccc(C(F)(C(F)(F)F)C(F)(F)F)cc2C)ccc(F)c1Cl (centres unmarked)", "tested_on": "Common Cutworm (Spodoptera Litura)", "result_value": "A (100)"}
{"compound": "CSCC(C)NC(=O)c1cccc(Cl)c1C(=O)Nc1ccc(C(F)(F)C(F)(F)F)cc1C (centres unmarked)", "tested_on": "Common Cutworm (Spodoptera Litura)", "result_value": "A (100)"}
{"compound": "COCC[S+]([O-])CC(C)NC(=O)c1c(I)cccc1C(=O)Nc1ccc(C(F)(C(F)(F)F)C(F)(F)F)cc1C (centres unmarked)", "tested_on": "Common Cutworm (Spodoptera Litura)", "result_value": "A (100)"}
{"compound": "CSCC(C)(C)NC(=O)c1c(Br)cccc1C(=O)Nc1ccc(OC(F)(F)F)cc1Cl", "tested_on": "Common Cutworm (Spodoptera Litura)", "result_value": "A (100)"}
{"compound": "CSCC(C)NC(=O)c1c(C(=O)Nc2ccc(OC(F)(F)F)cc2C)ccc2c1OC(F)(F)O2 (centres unmarked)", "tested_on": "Common Cutworm (Spodoptera Litura)", "result_value": "D (79-50)"}

Please go through the list and note Test Example 2 insecticidal effect (mortality) for each compound.
1. CC(C)(CS(C)(=O)=O)NC(=O)c1c(Br)cccc1C(=O)Nc1ccc(OC(F)(F)F)cc1Cl
2. Cc1cc(OC(F)(F)F)ccc1NC(=O)c1cccc(I)c1C(=O)NC(C)CSc1ccccn1 (centres unmarked)

1. A (100)
2. D (79-50)

----------
tested on: Common Cutworm (Spodoptera Litura); assay: Insecticidal effect on common cutworm (Test Example 2); type: in vivo; settings: 50 ppm; cabbage leaf immersed about 30 seconds; second-instar larvae; 25° C.; eight days after the inoculation
quantity_name: Test Example 2 insecticidal effect (mortality)

{"compound": "CSCCC(C)NC(=O)c1c(I)cccc1C(=O)Nc1ccc(C(F)(C(F)(F)F)C(F)(F)F)cc1C (stereo not shown)", "result_value": "A (100)"}
{"compound": "CCS(=O)(=O)CC(C)(C)NC(=O)c1c(I)cccc1C(=O)Nc1ccc(OC(F)(F)F)cc1C", "result_value": "A (100)"}
{"compound": "CNC(=S)SCC(C)NC(=O)c1c(I)cccc1C(=O)Nc1ccc(C(F)(C(F)(F)F)C(F)(F)F)cc1C (stereo not shown)", "result_value": "A (100)"}

----------
Test system: Smaller tea Tortrix (Adoxophyes sp.)
Assay: Insecticidal effect on smaller tea tortrix (Test Example 3)
Type: in vivo
Settings: 50 ppm; tea leaf immersed 30 seconds; larvae; 25° C., humidity 70%; eight days after the inoculation
Source text: Insecticidal Effect on Smaller tea Tortrix (Adoxophyes sp.) A leaf of tea tree was immersed for 30 seconds in a liquid chemical containing each compound listed in Table 1, 2 or 3 as an active ingredient to adjust the concentration to 50 ppm. […] Eight days after the inoculation, the dead and alive were counted, and the insecticidal effect was judged according to the same criterion as mentioned in Test Example 1. […]
quantity_name: Test Example 3 insecticidal effect (mortality)

Below, 5 molecules whose answers are already recorded.
{"molecule": "Cc1cc(C(F)(C(F)(F)F)C(F)(F)F)ccc1NC(=O)c1cccc(I)c1C(=O)NC(C)CSc1nc2ccccc2s1 (centres unmarked) [compound 319]", "result_value": "A (100)"}
{"molecule": "CSCC(C)NC(=O)c1cc(Cl)ccc1C(=O)Nc1ccc(C(F)(F)C(F)(F)F)cc1C (centres unmarked) [compound 43]", "result_value": "A (100)"}
{"molecule": "CCN(CCS(C)(=O)=O)C(=O)c1c(F)cccc1C(=O)Nc1ccc(C(F)(C(F)(F)F)C(F)(F)F)cc1C [2-12]", "result_value": "A (100)"}
{"molecule": "Cc1cc(C(F)(C(F)(F)F)C(F)(F)F)ccc1NC(=O)c1cccc(I)c1C(=O)NC(C)CCS(C)(=O)=O (centres unmarked) [Compound No. 196]", "result_value": "A (100)"}
{"molecule": "Cc1nnc(SCC(C)NC(=O)c2c(I)cccc2C(=O)Nc2ccc(C(F)(C(F)(F)F)C(F)(F)F)cc2C)s1 (centres unmarked) [compound 353]", "result_value": "A (100)"}

Provide reported Test Example 3 insecticidal effect (mortality) for each item, in the same order as listed.
1. CSCC(C)(C)NC(=O)c1c(I)cccc1C(=O)Nc1ccc(Oc2cccc(Cl)c2)cc1C [compound 474]
2. CSCC1(NC(=O)c2c(I)cccc2C(=O)Nc2ccc(C(F)(C(F)(F)F)C(F)(F)F)cc2C)CCCC1 [compound 445]
3. CSCC(NC(=O)c1c(I)cccc1C(=O)Nc1ccc(C(F)(C(F)(F)F)C(F)(F)F)cc1C)c1ccccc1 (centres unmarked) [compound 89]
4. CCCCSCC(C)NC(=O)c1c(I)cccc1C(=O)Nc1ccc(C(F)(F)C(F)(F)F)cc1C (centres unmarked) [compound 64]
5. Cc1cc(C(F)(C(F)(F)F)C(F)(F)F)ccc1NC(=O)c1ccc2ccccc2c1C(=O)NC(C)CS(C)(=O)=O (centres unmarked) [compound 335]
6. CCS(=O)(=O)CCCCC(C)NC(=O)c1c(I)cccc1C(=O)Nc1ccc(C(F)(F)C(F)(F)F)cc1C (centres unmarked) [compound 179]
7. Cc1cc(OC(F)(F)F)ccc1NC(=O)c1cccc(I)c1C(=O)NC(C)CSC1CCCCC1 (centres unmarked) [compound 82]
8. CSCCNC(=O)c1c(I)cccc1C(=O)Nc1ccc(C(F)(F)C(F)(F)F)cc1C [compound 53]

1. D (79-50)
2. A (100)
3. A (100)
4. A (100)
5. D (79-50)
6. A (100)
7. A (100)
8. A (100)

----------
system: Diamond Back Moth (Plutella xylostella); assay: Insecticidal effect on diamond back moth (Test Example 1); assay type: in vivo; details: 50 ppm; Chinese cabbage seedling with deposited eggs immersed about 30 seconds; 25° C.; six days after the immersion
quantity_name: Test Example 1 insecticidal effect (mortality)

{"compound": "Cc1cc(OC(F)(F)F)ccc1NC(=O)c1cccc(Br)c1C(=O)NC(C)CS(C)(=O)=O (stereo not shown)", "result_value": "A (100)"}
{"compound": "Cc1cc(C(F)(C(F)(F)F)C(F)(F)F)ccc1NC(=O)c1ccc2ccccc2c1C(=O)NC(C)C[S+](C)[O-] (stereo not shown)", "result_value": "A (100)"}
{"compound": "CCN(CCS(C)(=O)=O)C(=O)c1c(F)cccc1C(=O)Nc1ccc(C(F)(C(F)(F)F)C(F)(F)F)cc1C", "result_value": "A (100)"}
{"compound": "CSCC(C)NC(=O)c1cc2ccccc2cc1C(=O)Nc1ccc(C(F)(C(F)(F)F)C(F)(F)F)cc1C (stereo not shown)", "result_value": "A (100)"}

I need Test Example 1 insecticidal effect (mortality) for every entry listed below, if you could help.
1. CSCC(C)NC(=O)c1c(Br)cccc1C(=O)Nc1ccc(OC(F)(F)F)cc1Cl (stereo not shown)
2. Cc1cc(C(F)(F)C(F)(F)F)ccc1NC(=O)c1cccc(Cl)c1C(=O)NC(C)C[S+](C)[O-] (stereo not shown)
3. CSCC(C)NC(=O)c1c(I)cccc1C(=O)Nc1ccc(C(F)(F)F)cc1C (stereo not shown)

1. A (100)
2. A (100)
3. A (100)
